System: NRG-mice bearing LNCaP tumors
Experiment: Biodistribution (and PET/SPECT imaging) in NRG-mice bearing LNCaP tumors
Assay type: in vivo
Conditions: 3 h p.i., Avg
*1 amine or outer side, *2 acyl side, *3 side chain or, on linkers, in order; H or OH if unused. Where a SMILES comes first, the peptide text is derived from it. [ ]: non-standard residue; d: D form. The star is where a group is joined. ξ: configuration not given here. ξLys(Nα-CO-ξAad) = O=C(O)CCCC(NC(=O)NC(CCCCN*)C(=O)O)C(=O)O; Butanoyl(4-(4-NO2Ph)) = O=C(CCCc1ccc([N+](=O)[O-])cc1)*; DOTA = O=C(O)CN1CCN(CC(=O)O)CCN(CC(=O)*)CCN(CC(=O)O)CC1; ξAla(9-anthryl) = NC(Cc1c2ccccc2cc2ccccc12)C(=O)O; X1 = O=C(C1CCC(CN[*:1])CC1)[*:2]; ξK = NCCCCC(N)C(=O)O
Reported Biodistribution: Pancreas values for the following compounds.
Write the number in % ID/g without appending the unit.

>>> datavalue("O=C([O-])CN1CCN(CC(=O)[O-])CCN(CC(=O)NCCCCC(NC(=O)CNC(=O)CCCc2ccc([N+](=O)[O-])cc2)C(=O)NCC(=O)NCC2CCC(C(=O)NC(Cc3c4ccccc4cc4ccccc34)C(=O)NCCCCC(NC(=O)NC(CCCC(=O)O)C(=O)O)C(=O)O)CC2)CCN(CC(=O)[O-])CC1.[225Ac+3] (stereo not drawn) [^225Ac-CCZ02017] ({Butanoyl(4-(4-NO2Ph))}-G[ξK](DOTA)G[X1][ξAla(9-anthryl)]-{ξLys(Nα-CO-ξAad)})")
1.14

Could you share which Biodistribution: Pancreas value was measured for COc1ccc(CCCC(=O)NCC(=O)NC(CCCCNC(=O)CN2CCN(CC(=O)[O-])CCN(CC(=O)[O-])CCN(CC(=O)[O-])CC2)CC(=O)NCC2CCC(C(=O)NC(Cc3c4ccccc4cc4ccccc34)C(=O)NCCCCC(NC(=O)NC(CC(F)C(=O)O)C(=O)O)C(=O)O)CC2)cc1.[177Lu+3] (stereo not drawn) [^177Lu-CCZ02019] ?
1.07

Same read-out for O=C([O-])CN1CCN(CC(=O)[O-])CCN(CC(=O)NCCCCC(NC(=O)CNC(=O)CCCc2ccc([N+](=O)[O-])cc2)C(=O)NCC(=O)NCC2CCC(C(=O)NC(Cc3c4ccccc4cc4ccccc34)C(=O)NCCCCC(NC(=O)NC(CCCC(=O)O)C(=O)O)C(=O)O)CC2)CCN(CC(=O)[O-])CC1.[177Lu+3] (stereo not drawn) [^177Lu-CCZ02017] ({Butanoyl(4-(4-NO2Ph))}-G[ξK](DOTA)G[X1][ξAla(9-anthryl)]-{ξLys(Nα-CO-ξAad)}) ?
2.27

Values compiled from patent US20250186627A1.
